targetOrTestSystem: Human DR5 (Homo sapiens, UniProt O14763)
testName: Binding affinity of antibody to human DR5 (BIAcore, CM5 chip)
conditionSummary: association rate, Human DR5, 1:1 Langmuir binding model
propertyLabel: Ka(1/Ms)

Recorded Ka(1/Ms) (molecule DA29: humanized or deimmunized variant of parental clone D0; CDRs SEQ ID NO 1, 2, 7 / 4, 10, 13 (antibody, V domains shown) VH: AVTLDESGGGLQTPGGGLSLVCKGSGFTFSSFNMLWVRQAPGKGLEWVAGIGKSDRYTGYGSAVKGRATISRDDGQSTARLQLNNLRAEDTGTYYCVKDAGSGCGSGGWTGACIDTWGHGTEVIVSS VL: LTQPSSVSANLGGTVEITCSGGDSYAGSYYYGWYQQKAPGSAPVTVIYNNNNRPSNIPSRFSGSTSGSTATLTITGVQAEDEATYFCGSRDSSYVGIFGAGTTLTVL ): 1.21 × 10^06 1/Ms
